Just for reference, patent US20260152487A1 is where these values come from.

STUDY_TARGET: recombinant human PKM2 (Homo sapiens, UniProt P14618)
Construct: His (N); purchased R&D Systems
Sequence (P14618 2-531 limits assumed): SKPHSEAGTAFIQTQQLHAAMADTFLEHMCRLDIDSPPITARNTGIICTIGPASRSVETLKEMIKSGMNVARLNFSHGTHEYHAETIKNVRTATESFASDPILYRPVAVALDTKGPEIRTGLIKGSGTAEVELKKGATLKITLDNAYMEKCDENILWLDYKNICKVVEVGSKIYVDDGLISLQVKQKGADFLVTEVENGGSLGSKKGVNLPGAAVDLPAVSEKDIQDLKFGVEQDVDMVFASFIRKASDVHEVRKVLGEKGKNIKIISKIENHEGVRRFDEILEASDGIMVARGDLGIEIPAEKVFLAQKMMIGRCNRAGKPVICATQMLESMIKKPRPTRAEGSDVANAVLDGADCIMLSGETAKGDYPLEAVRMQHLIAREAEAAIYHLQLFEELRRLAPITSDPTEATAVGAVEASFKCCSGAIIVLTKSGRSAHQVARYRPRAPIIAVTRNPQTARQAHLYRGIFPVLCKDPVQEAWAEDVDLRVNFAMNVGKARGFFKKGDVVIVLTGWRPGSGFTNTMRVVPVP
TEST_PROTOCOL: Human PKM2 activation assay (Kinase-Glo Plus luminescent detection of generated ATP)
Type: biochemical
CONDITION_INFO: recombinant human PKM2 activation; 4-parameter logistic fit; read-out: hPKM2 EC50
The compounds listed here are annotated with their pEC50.
The quantity pEC50 is defined as the negative base-10 logarithm of the molar concentration.

Please review the following examples before continuing.
| COMPOUND | STUDY_TARGET | READOUT | RECORDED_NUMBER |
| --- | --- | --- | --- |
| COc1ccc(S(=O)(=O)c2ccc3c(=O)n(Cc4ccc(OC)nc4)ncc3c2)cc1 [Example 51] | recombinant human PKM2 (Homo sapiens, UniProt P14618) | pEC50 | 7.62 |
| Cc1nc(Cn2ncc3cc(S(=O)(=O)c4cc[nH]n4)ccc3c2=O)ccc1F [Example 303] | recombinant human PKM2 (Homo sapiens, UniProt P14618) | pEC50 | 7.05 |
| Cn1cc(S(=O)(=O)c2ccc3c(=O)n(Cc4cccc(C5(O)COC5)n4)ncc3c2)cn1 [Example 283] | recombinant human PKM2 (Homo sapiens, UniProt P14618) | pEC50 | 6.36 |
| COc1ccc([S@](=N)(=O)c2ccc3c(=O)n(Cc4ccc(OC)nc4)ncc3c2)cc1 (single isomer, unassigned) [Example 139] | recombinant human PKM2 (Homo sapiens, UniProt P14618) | pEC50 | 6.89 |
| Cn1cc(S(=O)(=O)c2ccc3c(=O)n(Cc4cc(F)[nH]n4)ncc3c2)cn1 [Example 322] | recombinant human PKM2 (Homo sapiens, UniProt P14618) | pEC50 | 6.64 |

Query string: Need pEC50 of O=c1c2ccc(S(=O)(=O)c3ccccc3)cc2cnn1Cc1ccn(C2COC2)n1 [Example 273] , thanks.
Result string: 6.34

Query string: Need pEC50 of COc1ccc(Cn2ncc3cc(S(=O)(=O)c4cn(C)c(C)n4)ccc3c2=O)cn1 [Example 185] , thanks.
Result string: 6.13

Query string: Need pEC50 of COc1ccc(S(=O)(=O)c2ccc3c(=O)n(Cc4ccn(C5CC5)n4)ncc3c2)cn1 [Example 205] , thanks.
Result string: 7.23

Query string: Need pEC50 of Cn1ccc(Cn2ncc3cc(S(=O)(=O)c4ccc5c(c4)OCCO5)ccc3c2=O)n1 [Example 215] , thanks.
Result string: 7.60

Query string: Need pEC50 of O=c1c2ccc(S(=O)(=O)c3ccc4c(c3)OCCO4)cc2cnn1Cc1cc[nH]n1 [Example 207] , thanks.
Result string: 7.48

Query string: Need pEC50 of Cc1cc(S(=O)(=O)c2ccc3c(=O)n(Cc4ccc5c(n4)CCO5)ncc3c2)n[nH]1 [Example 359] , thanks.
Result string: 7.62

Query string: Need pEC50 of O=c1c2ccc(S(=O)(=O)c3ccc4c(n3)OCCO4)cc2cnn1Cc1cc[nH]n1 [Example 229] , thanks.
Result string: 7.35

Query string: Need pEC50 of Cc1[nH]nc(Cn2ncc3cc(S(=O)(=O)c4cc[nH]n4)ccc3c2=O)c1Cl [Example 332] , thanks.
Result string: 7.37

###

STUDY_TARGET: recombinant human PKM2 (Homo sapiens, UniProt P14618)
Construct: His (N); purchased R&D Systems
TEST_PROTOCOL: Human PKM2 activation assay (Kinase-Glo Plus luminescent detection of generated ATP)
Format: biochemical
CONDITION_INFO: percentage activation normalised to DMSO vehicle (LOW) and 5 μM TEPP-46 (HIGH); read-out: hPKM2 Emax
The compounds listed here are annotated with their Emax.
Answer format: numeric, % implied, no suffix.

Please review the following examples before continuing.
| COMPOUND | Emax (%) |
| --- | --- |
| COc1ccc(S(=N)(=O)c2ccc3c(=O)n(Cc4ccc(OC)nc4)ncc3c2)cc1 (racemic) [Example 137] | 81.9 |
| Cc1cc(Cn2ncc3cc(S(=O)(=O)c4csc(C)n4)ccc3c2=O)n[nH]1 [Example 358] | 98.4 |
| Cc1[nH]nc(Cn2ncc3cc(S(=O)(=O)c4cn[nH]c4)ccc3c2=O)c1Cl [Example 314] | 94.9 |

As a next step, examine the compound that follows.
Query string: # get_value(readout= Emax, system= recombinant human PKM2 (Homo sapiens, UniProt P14618)) for Cc1ccc(F)c(Cn2ncc3cc(S(=O)(=O)c4cc[nH]n4)ccc3c2=O)n1 [Example 301]
Result string: 119

###

STUDY_TARGET: recombinant human PKM2 (Homo sapiens, UniProt P14618)
Construct: His (N); purchased R&D Systems
TEST_PROTOCOL: Human PKM2 activation assay (Kinase-Glo Plus luminescent detection of generated ATP)
Type: biochemical
CONDITION_INFO: percentage activation normalised to DMSO vehicle (LOW) and 5 μM TEPP-46 (HIGH); read-out: hPKM2 Emax
READOUT: Emax (%)
Answer format: numeric, % implied, no suffix.

Please review the following examples before continuing.
| MOLECULE | RECORDED_NUMBER |
| --- | --- |
| O=c1c2ccc(S(=O)(=O)c3cc[nH]n3)cc2cnn1Cc1ccn(C(F)F)n1 [Example 328] | 91.5 |
| COc1cccc(Cn2ncc3cc(S(=O)(=O)c4cn[nH]c4)ccc3c2=O)n1 [Example 294] | 104 |
| COc1ccc(Cn2ncc3cc(OC4(c5ccccc5)COC4)ncc3c2=O)cn1 [Example 125] | 88.8 |

Query string: # get_value(readout= Emax, system= recombinant human PKM2 (Homo sapiens, UniProt P14618)) for O=c1c2ccc(S(=O)(=O)c3cnn(C(F)F)c3)cc2cnn1Cc1ccc2c(n1)CCO2 [Example 340]
Result string: 111

Query string: # get_value(readout= Emax, system= recombinant human PKM2 (Homo sapiens, UniProt P14618)) for NC(=O)c1cccc(Cn2ncc3cc(S(=O)(=O)c4ccccc4)ccc3c2=O)c1 [Example 84]
Result string: 93.1

Query string: # get_value(readout= Emax, system= recombinant human PKM2 (Homo sapiens, UniProt P14618)) for Cn1ccc(Cn2ncc3cc(S(=O)(=O)c4ccccc4)cnc3c2=O)n1 [Example 250]
Result string: 92.4

Query string: # get_value(readout= Emax, system= recombinant human PKM2 (Homo sapiens, UniProt P14618)) for N#Cc1c[nH]nc1Cn1ncc2cc(S(=O)(=O)c3ccccc3)ccc2c1=O [Example 18]
Result string: 98.5

Query string: # get_value(readout= Emax, system= recombinant human PKM2 (Homo sapiens, UniProt P14618)) for Cn1ccc(Cn2ncc3cc(S(=O)(=O)c4cnn(C5CC5)c4)ccc3c2=O)n1 [Example 194]
Result string: 113

###

The molecules listed here are annotated with their Emax.
STUDY_TARGET: recombinant human PKM2 (Homo sapiens)
Construct: His (N); purchased R&D Systems
TEST_PROTOCOL: Human PKM2 activation assay (Kinase-Glo Plus luminescent detection of generated ATP)
Assay type: biochemical
CONDITION_INFO: percentage activation normalised to DMSO vehicle (LOW) and 5 μM TEPP-46 (HIGH); read-out: hPKM2 Emax
Output should be the measured figure followed by the unit it is expressed in.

Please review the following examples before continuing.
| MOLECULE | READOUT | RESULT |
| --- | --- | --- |
| O=c1c2ccc(S(=O)(=O)c3ccccc3)cc2cnn1Cc1n[nH]cc1F | Emax | 119% |
| Cc1cccc(Cn2ncc3cc(S(=O)(=O)c4n[nH]cc4F)ccc3c2=O)n1 | Emax | 110% |
| Cn1ccc(S(=O)(=O)c2ccc3c(=O)n(Cc4ccccc4C(N)=O)ncc3c2)n1 | Emax | 87.4% |
| Nc1cccc(Cn2ncc3cc(S(=O)(=O)c4ccccn4)ccc3c2=O)c1 | Emax | 114% |
| COc1ccc(Cn2ncc3cc(S(=O)(=O)c4ccccc4)ccc3c2=O)cc1 | Emax | 98.2% |
| O=c1c2ccc(S(=O)(=O)c3ccccc3)cc2cnn1Cc1ccccc1F | Emax | 99.6% |

Query string: # get_value(readout= Emax, system= recombinant human PKM2 (Homo sapiens)) for COc1ccc(Cn2ncc3cc(S(=O)(=O)c4cnn(CCO)c4)ccc3c2=O)nc1
Result string: 105%

Query string: # get_value(readout= Emax, system= recombinant human PKM2 (Homo sapiens)) for Cc1cccc(Cn2ncc3cc(S(=O)(=O)c4cnn(CCN)c4)ccc3c2=O)n1
Result string: 105%

Query string: # get_value(readout= Emax, system= recombinant human PKM2 (Homo sapiens)) for COc1ccc(S(=O)(=O)c2ccc3c(=O)n(Cc4cc[nH]n4)ncc3c2)nc1
Result string: 99.3%

Query string: # get_value(readout= Emax, system= recombinant human PKM2 (Homo sapiens)) for Cn1cc(S(=O)(=O)c2cc3cnn(Cc4cc[nH]n4)c(=O)c3cc2NCCO)cn1
Result string: 102%

Query string: # get_value(readout= Emax, system= recombinant human PKM2 (Homo sapiens)) for O=c1c2ccc(S(=O)(=O)c3ccccc3)cc2cnn1Cc1ccc(OCCO)nc1
Result string: 102%

Query string: # get_value(readout= Emax, system= recombinant human PKM2 (Homo sapiens)) for COCC(c1ccc(OC)nc1)n1ncc2cc(S(=O)(=O)c3ccccc3)ccc2c1=O (centres unmarked)
Result string: 80.8%

Query string: # get_value(readout= Emax, system= recombinant human PKM2 (Homo sapiens)) for Cn1cc(S(=O)(=O)c2ccc3c(=O)n(Cc4ccn(C5CC5)n4)ncc3c2)cn1
Result string: 116%
